target: Voltage-gated potassium channel subunit beta-2 (Rattus norvegicus); test: KvBeta positive modulators, primary screen, biochemical, NADPH fluorescence (AID 623); details: Recombinant KvBeta, NADPH fluorescence decrease slope, 10 min; at 10 µM; active compounds read low;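 further: fluorescence intensity change per second fitted from 20 to 320 s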
experimental.endpoint: NADPH fluorescence slope

- CC1(C)OC(=O)C(=CNC(CCC(N)=O)C(=O)O)C(=O)O1 (centres undefined): -9.2e-07
- CC1(C)Cc2c(C#N)c(SCC(=O)c3ccccc3)nc(N3CCOCC3)c2CS1: 1.6e-05
- O=C(C/C(=N/O)c1ccccc1O)C(F)F: -2.7e-05
- Cc1ccc(-c2noc(CCC(=O)NC3CCCc4ccccc43)n2)cc1 (centres undefined): -3.2e-05
- O=C(O)CCn1c(=O)c2ccccc2c2ccccc2c1=O: 7e-06
- COc1cccc(C(=O)Nc2ccc(-c3nnc(-c4ccco4)o3)cc2)c1: -4.6e-05
- CCN(CC)c1ccc(NC(=O)CN2CCN(CC(=O)Nc3ccccc3F)CC2)cc1: -3.8e-05
- COC(=O)CSCC(=O)Nc1cc2c(cc1C(C)=O)OCO2: 1.5e-05
- CCC(=O)Nc1c(C#N)c2nc3ccccc3nc2n1C1CCCCC1: 4.3e-06
- O=C(CSCc1ccc(F)cc1)NC1CCCC1: -5.3e-05
- CCSC1=C(C#N)C(c2cccs2)C(C(=O)OC)=C(C)N1 (centres undefined): -5.3e-05
- CN(C(=O)C1CCCO1)c1nnc(-c2ccncc2)s1 (centres undefined): -4.6e-05
- COCCn1nnnc1C(c1cccs1)N1CCN(c2cc(C)ccc2C)CC1 (centres undefined): 2e-05
- COc1ccc(-c2nnc(SCC(=O)NC(=O)NCc3ccco3)o2)cc1: 9.2e-05
- O=C(NCC(F)(F)F)Nc1nnc(C(F)(F)F)s1: -5.4e-05
- CCCc1cc(-n2ccnc2)n2c(nc3ccccc32)c1C#N: 1.6e-06
- O=C(COc1ccc(F)cc1)OCCN1CCOCC1: -0.000116
- CCn1c(SCC(=O)NC)nnc1C(C)C: -5.6e-05
- COc1ccccc1NCN1C(=O)CCC1=O: -2.5e-05
- NC(=O)NC(c1ccccc1)c1ccccc1F (centres undefined): 5.1e-06
- O=C(NCc1cccnc1)NC(C(F)(F)F)C(F)(F)F: -5.1e-05
- Cc1cc2ccccc2c(=O)n1CC(=O)N(C)c1ccc(F)cc1: -5.6e-05
- CCCCCn1c(CN2CCN(C(=O)c3ccco3)CC2)nc2c1c(=O)n(C)c(=O)n2C: -5.2e-05
- CCCCOC(=O)CSC1=C(C#N)C(c2ccc3c(c2)OCO3)CC(=O)N1 (centres undefined): -8.3e-05
- CCCN1CCN(CCCNC(=O)Cn2ncc3c4ccccc4n(C)c3c2=O)CC1: 2.2e-07
- Cn1c(=O)c2c(nc(CN3CCCCC3)n2CCc2ccccc2)n(C)c1=O: -1.3e-05
- CC1(C)Cc2c(c(N3CCOCC3)nc3sc4c(NCc5ccco5)nnnc4c23)CS1: -5e-06
- CCOc1ccc(-c2nnn(CCC(=O)O)n2)cc1OC: 1.3e-05
- CCOC(=O)c1oc2cccc(OC(C)=O)c2c1C: -4.6e-05
- c1ccc(-c2nnc(-c3ccco3)n2-c2ccccc2)cc1: -2.4e-05
- Cc1ccc(S(=O)(=O)N(CC(=O)NCc2ccco2)Cc2ccccc2F)cc1: 1.7e-06
- O=C(NC1CCCc2ccccc21)c1ccc(CNc2c(N3CCOCC3)c(=O)c2=O)cc1 (centres undefined): -2.5e-06
- CC(NC(=O)CSc1nc2c(cc1C#N)CN(C)CC2)c1ccccc1 (centres undefined): -3.9e-05
- O=C(NCc1ccco1)c1cnc2n(c1=O)CCS2: -1.2e-05

* * *

inhibition: recorded values
target: Dual specificity protein phosphatase 6 (Homo sapiens) (UniProt Q16828); assay: DUSP6 inhibitors restoring Erk phosphorylation by chemical complementation, primary imaging in DUSP6-transfected HeLa (AID 609); conditions: HeLa MKP-3 transfected, phospho-Erk imaging KS statistic; at 10 µM; active compounds read high; cells stimulated with TPA for 15 min;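 further: phospho-Erk level distribution per well compared with pooled transfected vehicle control wells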
Sequence (Q16828 whole entry, looked up): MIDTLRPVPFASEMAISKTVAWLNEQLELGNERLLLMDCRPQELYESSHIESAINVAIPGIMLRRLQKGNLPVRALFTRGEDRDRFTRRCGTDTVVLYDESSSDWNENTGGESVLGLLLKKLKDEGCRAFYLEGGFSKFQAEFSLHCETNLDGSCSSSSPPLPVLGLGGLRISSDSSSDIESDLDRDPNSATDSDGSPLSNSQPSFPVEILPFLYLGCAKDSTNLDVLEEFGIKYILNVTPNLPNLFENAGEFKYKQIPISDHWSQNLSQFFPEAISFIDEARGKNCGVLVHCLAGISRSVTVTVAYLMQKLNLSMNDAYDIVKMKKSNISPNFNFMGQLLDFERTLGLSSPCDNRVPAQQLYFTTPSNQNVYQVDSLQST
experimental.endpoint: inhibition (%)

* CCCC1CC(=O)OC1(C)C(=O)CSc1n[nH]c(-c2ccccc2)n1 (stereo unspecified) | -9.66
* CCCCc1nc2sc3c(c2c(=O)[nH]1)CCC3 | -9.53
* C=C(C)CC1N(c2cccc(OC)c2)C(=O)[C@@H]2C(C(=O)O)[C@H]3C=C[C@@]12O3 (stereo partly specified) | -7.28
* CCOC(=O)Cn1nc(C)c2ccccc2c1=O | 7.21
* CC1N(O)C(c2ccc(Cl)cc2Cl)N(O)C1(C)C (stereo unspecified) | 7.93
* O=C(O)c1cc2cccc(S(=O)(=O)N3CCOCC3)c2cc1O | -9.66

* * *

molecular target: Dual specificity protein phosphatase 6 (Homo sapiens) (UniProt Q16828); test: DUSP6 inhibitors restoring Erk phosphorylation by chemical complementation, primary imaging in DUSP6-transfected HeLa (AID 609); conditions: HeLa MKP-3 transfected, phospho-Erk imaging KS statistic; at 10 µM; active compounds read high; cells stimulated with TPA for 15 min;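 further: phospho-Erk level distribution per well compared with pooled transfected vehicle control wells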
inhibition: recorded values
experimental.endpoint: inhibition (%)

* CCSc1nc2sc3c(c2c(=O)n1C1CCCCC1)CCN(C)C3 | -8.59
* Cc1ccc(C(=O)C2C(c3cccs3)NC(=O)NC2(O)C(F)(F)F)cc1 (centres undefined) | -4.27
* CCOC(=O)Cc1[nH]nc2c1C(c1cc(OC)ccc1OC)C(C#N)=C(N)O2 (centres undefined) | 21
* CC1(C)Cc2c(sc3nc(SCC(=O)NCc4ccco4)n(-c4ccccc4)c(=O)c23)CS1 | 1.98
* CCc1nc(NCC(C)C)c(C#N)c2c1COC(C)(C)C2 | -9.91
* Cn1c(=O)c2c(nc(Br)n2CCSc2nc3ccccc3o2)n(C)c1=O | 17.4
* COc1ccc(OC)c(C2C(C(=O)c3sc(C)nc3C)=C(O)C(=O)N2CCN2CCOCC2)c1 (centres undefined) | -4.78
* Oc1ccc2ccccc2c1C=NC12CN3CCN(CN(C3)C1)C2 | -2.59
* CC1(C)CCN(Cc2ccccc2)C1CC#N (centres undefined) | 3.97
* CCCCC(=O)c1c(C)cc(C)[nH]c1=O | 3.97
* CCc1nc(N2CCCC2)c(C#N)c2c1CCCC2 | -6.59
* COc1cccc(CNc2ncc(Br)cc2Br)c1O | -5.62
* COCCNc1nc2c(c(=O)n(C)c(=O)n2C)n1Cc1cccc(C(F)(F)F)c1 | 7.93
* CCOc1ccc(N=C2C(=O)N(CN3CCOCC3)c3ccccc32)cc1 | 10.1
* CCOC(=O)C1=C(N)n2c(s/c(=C\c3cccnc3)c2=O)=C(C(=O)OC)C1c1cccnc1 (centres undefined) | -2.59
* COc1ccc(N2CCN(c3oc(COc4ccc(Cl)cc4)nc3C#N)CC2)cc1 | 2.71
* CC1(C)Cc2c(C#N)c(N3CCN(C(=O)c4ccco4)CC3)nc(-c3ccco3)c2CS1 | -4.27
* COc1cccc(N2CCN(C(=O)c3ccc(=O)oc3)CC2C)c1 (centres undefined) | -2.91
* Cc1cc(C)n(CC2CC(=O)N(c3ccc(F)c(Cl)c3)C2=O)n1 (centres undefined) | -3.97
* CCOc1ccc(C2=Nn3c(nnc3-c3ccccc3OC)SC2)cc1 | 4.25
* Cn1cc(Cl)nc1C(O)c1ccccc1 (centres undefined) | -0.233
* C=CCNc1nc(C)nc(OC)n1 | 14.7
* Nc1nc2n(n1)C(c1cccs1)CC(c1ccc(F)cc1)N2 (centres undefined) | 5.65
* CC(C)Cc1[nH]c(=O)c(C#N)c2c1COC(C)(C)C2 | -13.3
* C#CC1CN(Cc2ccccc2)CC(C#C)N1C (centres undefined) | -7.67
* CC1(C)Cc2nc(NCCN3CCOCC3)c(C#N)cc2CO1 | -0.233
* C(=N\n1cnnc1)/c1cccc(Oc2ccccc2)c1 | -6.06
* O=C1CC(c2ccccc2)n2nc(NS(=O)(=O)c3ccccc3)nc2N1 (centres undefined) | 14.4
* COC(=O)C(NC(=O)c1ccco1)(Nc1ccc(Br)cn1)C(F)(F)F (centres undefined) | -5.81
* CCCCc1nc(N2CCOCC2)c(C#N)c2c1COC(C)(C)C2 | 15.4
* Cn1c(N2CCN(c3ccccn3)CC2)nc2c1c(=O)n(Cc1ccccc1Cl)c(=O)n2C | 13.9
* Cc1cc(N2C(=O)C(=O)/C(=C(/O)c3ccc(F)cc3)C2c2cccc(Br)c2)no1 (centres undefined) | 1.04
* NC(=O)CSc1nnc2n(-c3ccccc3)c(=O)c3c4c(sc3n12)CCCCC4 | -2.59
* Nc1c2c(nc3ccccc13)N(c1ccccc1)CC2 | -2.09
* CC(C(=O)NC(=O)NCc1ccccc1)N1C(=O)c2ccccc2C1=O (centres undefined) | -11.4
* COc1ccc(CC(=O)n2c(CC#N)nc3ccccc32)cc1OC | -0.233
* CCOC(=O)c1c(NC(=O)CN2CCOCC2)sc2c1CC(C)(C)OC2 | 3.49
* COC(=O)c1sc2nc(N3CCCCC3)c3c(c2c1N)CC(C)(C)N(C)C3 | 3.42
* COc1ccc2c(c1)c(C(=O)CN1CCOCC1)c(C)n2C | 17.8
